Target Entity: PDE5cd A823F (human, UniProt O76074 535-860, A823F)
Experimental Protocol: inhibition of PDE activity
Value Type: pKi
In textbook form, pKi equals minus log to base ten of the concentration in mol/L.

Report measured pKi; entry is DITVICPWEAFNHLELHELAQYGII (peptide, UniProt P04972 63-87, looked up) [Pγ C-terminal peptide Pγ_(63-87)]
4.35
